assayName: Pharmacokinetics (PK) in SD rats
Assay type: in vivo
statedConditions: SD, plasma, po; rat, intragastric administration, 1 mg/kg; read-out: F % (absolute bioavailability)
// reported bioavailability for each item listed

Recorded results for 3 molecules are shown here.
{"molecule": "COc1ccc(CNc2nc(N3Cc4cccnc4C3)ncc2C(=O)N[C@H]2CC[C@H](O)CC2)cc1Cl [WO-93, reference compound]", "bioavailability": "16%"}
{"molecule": "COc1ccc(CNc2nc(N3CC4CC4C3)ncc2C(=O)N[C@H]2CC[C@H](O)CC2)cc1Cl (stereo partly shown) [Compound 11]", "bioavailability": "70.4%"}
{"molecule": "COc1ccc(CNc2nc(N3CCC4(CCC4)CC3)ncc2C(=O)NCc2ncccn2)cc1Cl [Compound 14]", "bioavailability": "15%"}

Fill in the blank: the reported bioavailability of COc1ccc(CNc2nc(N3CCC[C@H]3CO)ncc2C(=O)N[C@H]2CC[C@H](O)CC2)cc1Cl [WO-88, reference compound] is ____.
23%
